B1: REST corepressor 3, residues 87 to 134; numbered along this chain, Q9P2K3 (parent)
chain: DEWTVEDKVLFEQAFSFHGKSFHRIQQMLPDKTIASLVKYYYSWKKTR

- Variants of: B1
- PROCEDURE_TEXT: abundance fitness (aPCA) (normalised: wild type 0, dead -1); higher = more abundant; growth selection in yeast, the domain comes from the species named
- CONDITION: Homo sapiens
Each record's abundance fitness is compared with category 1 (below -0.6), category 2 (-0.6 to below -0.2), category 3 (-0.2 or more) to give its class.

VARIANT_NAME | CLASS_NAME
A35V | category 2
V9T | category 3
Q26R | category 2
K8M | category 3
A14G | category 1
H18N | category 1
Y42N | category 3
I25D | category 2
I34Y | category 2
Q27M | category 3
S16M | category 3
H23N | category 3
D31S | category 3
W44R | category 2
Q26M | category 2
H23C | category 1
A35I | category 3
K39M | category 1
V5E | category 3
S43C | category 3
V9W | category 3
R24V | category 2
V5G | category 1
T47R | category 3
D31H | category 2
V38F | category 1
F15V | category 2
K20C | category 2
K39L | category 1
Y41K | category 2
F15G | category 1
T33Y | category 1
M28F | category 2
S36T | category 2
Q27V | category 3
I34E | category 2
L10A | category 2
F15C | category 3
F22Y | category 2
K45N | category 3
W44L | category 2
V9A | category 2
A35Q | category 2
H18I | category 3
K45Y | category 3
V38E | category 3
W44T | category 2
Q13R | category 2
I34H | category 1
P30V | category 1
Q27I | category 1
V38W | category 2
F11G | category 1
V5C | category 2
H23G | category 1
L10I | category 3
I25Y | category 2
I25M | category 1
S36H | category 2
R24G | category 1
V5Y | category 3
I25V | category 1
F11P | category 1
F11C | category 2
F17T | category 3
H18V | category 1
H23K | category 3
S36C | category 3
K20G | category 2
K8Q | category 2
Y42S | category 3
Y41H | category 2
I25L | category 2
A14E | category 1
Q27T | category 2
L37R | category 1
K32F | category 1
K39H | category 3
I34S | category 1
F17H | category 2
S36L | category 1
D7W | category 1
